This section presents binders with their documented Classification values.
- target or test system: T1, GST-NeDLG PDZ domain 3 (Mus musculus (Mouse)), P70175
- T1 chain: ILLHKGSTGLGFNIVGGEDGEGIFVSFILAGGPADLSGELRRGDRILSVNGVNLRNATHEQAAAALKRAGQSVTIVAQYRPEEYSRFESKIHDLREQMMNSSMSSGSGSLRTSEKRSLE
- experiment description: G' assay; further: key of the grades not given here
assay metric: Classification (A450 class)

* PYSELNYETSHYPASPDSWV (modifications not checked) [catenin - delta 2] | 1
* SFTSILTCHQRRTQRKETVA (modifications not checked) [GluR5-2 (rat)] | 2
* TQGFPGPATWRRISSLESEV (modifications not checked) [NMDA Glutamate Receptor 2C (cysteine-free)] | 1
